Item-by-item account of TGI
System: UO-31 renal
Assay: NCI tumour cell line growth inhibition, 48 h
parameter: TGI

• O=C(O)[C@H](Cc1ccccc1)NCCN1CCC[C@H]1C(=O)O = > 100 µM
• CCS(=O)(=O)CCn1c(=O)c2c(ncn2C)n(C)c1=O = > 100 µM
• Oc1cc(N2CCCC2)ccc1/C=N/N1C(=S)N(c2ccccc2)C(=Nc2ccccc2)C1=Nc1ccccc1 = > 100 µM
• COc1ccc2oc(C(=O)O)c3c2c1CCC3CCC(=O)O (stereo not given) = > 100 µM
• COc1ccc2c(c1)C(=O)/C(=C/c1ccc([N+](=O)[O-])o1)O2 = 2.46 µM
• NC1=NN(c2ccccc2)C(=O)C1C(=O)C(=O)Nc1nccs1 (stereo not given) = > 100 µM
• CCN(CC)c1ccc(/C=C/C(=O)c2cc(C(C)(C)C)c(O)c(C(C)(C)C)c2)cc1 = > 100 µM
• CC1(N)CCN(c2cnc(-c3cccc(Cl)c3Cl)c(N)n2)CC1 = 17.9 µM
• CN(C)CCNc1c2ccccc2nc2oc3ccccc3c12 = 46.9 µM
• O=C(NO)[C@@H](Cc1ccccc1)NS(=O)(=O)c1ccc(-c2ccccc2)cc1 = > 25 µM
